target: Serine/threonine-protein kinase pim-1 (Homo sapiens, UniProt P11309)
Sequence (P11309 whole entry): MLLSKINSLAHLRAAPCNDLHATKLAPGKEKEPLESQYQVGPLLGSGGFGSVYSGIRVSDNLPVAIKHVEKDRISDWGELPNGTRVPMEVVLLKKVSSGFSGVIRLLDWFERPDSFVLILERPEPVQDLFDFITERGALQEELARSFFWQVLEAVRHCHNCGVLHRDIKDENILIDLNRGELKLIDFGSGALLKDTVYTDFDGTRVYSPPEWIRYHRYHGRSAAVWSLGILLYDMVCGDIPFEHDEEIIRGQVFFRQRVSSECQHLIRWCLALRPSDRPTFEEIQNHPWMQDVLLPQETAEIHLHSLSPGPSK
quantityName: Kd (nM)
Number in nM, nothing else.

(Q) Which Kd reading was recorded for the molecule `N#Cc1ccc(-c2cnc3[nH]cc(NC(=O)c4cccnc4)c3c2)cc1` ?
(A) 35

====

biological target: UniProtKB P09619
Sequence (P09619 whole entry): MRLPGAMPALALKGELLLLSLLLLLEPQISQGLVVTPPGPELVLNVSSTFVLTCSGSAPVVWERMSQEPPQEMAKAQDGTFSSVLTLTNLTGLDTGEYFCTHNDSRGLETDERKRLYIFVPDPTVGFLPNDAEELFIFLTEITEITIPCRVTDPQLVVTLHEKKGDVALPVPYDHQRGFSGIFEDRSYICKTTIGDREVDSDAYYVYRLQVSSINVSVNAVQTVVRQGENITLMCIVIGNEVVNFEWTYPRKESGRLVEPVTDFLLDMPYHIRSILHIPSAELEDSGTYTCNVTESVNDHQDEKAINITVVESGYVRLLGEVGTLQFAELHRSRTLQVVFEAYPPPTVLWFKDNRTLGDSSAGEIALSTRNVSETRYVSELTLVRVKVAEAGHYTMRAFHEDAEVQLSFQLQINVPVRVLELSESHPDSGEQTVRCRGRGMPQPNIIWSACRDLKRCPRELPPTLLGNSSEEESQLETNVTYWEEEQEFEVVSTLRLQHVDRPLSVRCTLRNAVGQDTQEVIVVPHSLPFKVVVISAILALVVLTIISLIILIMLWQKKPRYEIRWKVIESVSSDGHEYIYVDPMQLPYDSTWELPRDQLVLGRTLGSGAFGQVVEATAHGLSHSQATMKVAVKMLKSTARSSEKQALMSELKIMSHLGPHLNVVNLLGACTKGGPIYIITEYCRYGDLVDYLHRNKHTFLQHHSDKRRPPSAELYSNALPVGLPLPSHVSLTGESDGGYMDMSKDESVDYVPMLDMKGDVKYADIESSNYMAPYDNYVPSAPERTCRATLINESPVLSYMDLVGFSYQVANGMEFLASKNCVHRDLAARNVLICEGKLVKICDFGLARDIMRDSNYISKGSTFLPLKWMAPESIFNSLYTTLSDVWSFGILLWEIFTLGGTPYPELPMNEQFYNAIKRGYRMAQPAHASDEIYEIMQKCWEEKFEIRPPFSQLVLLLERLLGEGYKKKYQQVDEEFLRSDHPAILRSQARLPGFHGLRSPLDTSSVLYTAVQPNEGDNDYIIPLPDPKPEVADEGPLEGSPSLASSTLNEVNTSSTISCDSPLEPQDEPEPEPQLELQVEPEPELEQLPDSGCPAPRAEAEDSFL
quantityName: pKd
Note: pKd values are expressed as the negative base-10 logarithm of concentration in M.

(Q) Which pKd reading was recorded for the molecule `NC(=O)c1ccc(Nc2cc(-c3ccc(F)cc3)n[nH]2)cc1` ?
(A) 7.38

====

Target: Ephrin type-B receptor 3 (Homo sapiens, UniProt P54753)
Sequence (P54753 whole entry): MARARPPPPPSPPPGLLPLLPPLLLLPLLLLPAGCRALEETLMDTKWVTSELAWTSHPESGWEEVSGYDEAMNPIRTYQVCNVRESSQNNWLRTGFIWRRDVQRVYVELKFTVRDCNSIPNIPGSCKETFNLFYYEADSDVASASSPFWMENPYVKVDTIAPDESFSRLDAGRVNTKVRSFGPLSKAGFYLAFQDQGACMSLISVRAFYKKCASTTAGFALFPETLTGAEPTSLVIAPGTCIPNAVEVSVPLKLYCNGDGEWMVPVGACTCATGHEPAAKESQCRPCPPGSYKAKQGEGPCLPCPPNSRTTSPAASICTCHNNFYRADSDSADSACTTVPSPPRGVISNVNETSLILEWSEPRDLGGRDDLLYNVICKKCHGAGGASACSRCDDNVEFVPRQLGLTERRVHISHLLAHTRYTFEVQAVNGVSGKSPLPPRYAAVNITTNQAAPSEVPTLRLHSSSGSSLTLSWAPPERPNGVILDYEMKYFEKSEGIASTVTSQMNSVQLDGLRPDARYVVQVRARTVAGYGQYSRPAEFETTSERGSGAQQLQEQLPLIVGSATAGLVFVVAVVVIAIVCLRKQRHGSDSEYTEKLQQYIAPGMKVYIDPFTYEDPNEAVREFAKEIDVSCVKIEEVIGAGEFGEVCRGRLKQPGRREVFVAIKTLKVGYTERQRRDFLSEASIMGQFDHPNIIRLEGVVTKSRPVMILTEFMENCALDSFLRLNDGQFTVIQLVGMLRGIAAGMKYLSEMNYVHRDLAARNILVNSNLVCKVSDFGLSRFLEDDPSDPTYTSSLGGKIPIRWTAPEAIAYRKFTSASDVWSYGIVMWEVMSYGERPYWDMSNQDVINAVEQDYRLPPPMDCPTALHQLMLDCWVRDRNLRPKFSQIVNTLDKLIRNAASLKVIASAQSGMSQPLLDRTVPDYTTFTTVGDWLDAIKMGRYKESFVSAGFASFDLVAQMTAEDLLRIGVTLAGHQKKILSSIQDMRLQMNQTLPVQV
quantityName: pKd
Note: pKd values are expressed as the negative base-10 logarithm of concentration in M.

(Q) Which pKd reading was recorded for the compound `Cc1ccc(O)cc1Nc1ccnc(Nc2cccc(C(N)=O)c2)n1` ?
(A) 7.09

====

Target: Ephrin type-A receptor 6 (Homo sapiens)
Sequence (Q9UF33 whole entry): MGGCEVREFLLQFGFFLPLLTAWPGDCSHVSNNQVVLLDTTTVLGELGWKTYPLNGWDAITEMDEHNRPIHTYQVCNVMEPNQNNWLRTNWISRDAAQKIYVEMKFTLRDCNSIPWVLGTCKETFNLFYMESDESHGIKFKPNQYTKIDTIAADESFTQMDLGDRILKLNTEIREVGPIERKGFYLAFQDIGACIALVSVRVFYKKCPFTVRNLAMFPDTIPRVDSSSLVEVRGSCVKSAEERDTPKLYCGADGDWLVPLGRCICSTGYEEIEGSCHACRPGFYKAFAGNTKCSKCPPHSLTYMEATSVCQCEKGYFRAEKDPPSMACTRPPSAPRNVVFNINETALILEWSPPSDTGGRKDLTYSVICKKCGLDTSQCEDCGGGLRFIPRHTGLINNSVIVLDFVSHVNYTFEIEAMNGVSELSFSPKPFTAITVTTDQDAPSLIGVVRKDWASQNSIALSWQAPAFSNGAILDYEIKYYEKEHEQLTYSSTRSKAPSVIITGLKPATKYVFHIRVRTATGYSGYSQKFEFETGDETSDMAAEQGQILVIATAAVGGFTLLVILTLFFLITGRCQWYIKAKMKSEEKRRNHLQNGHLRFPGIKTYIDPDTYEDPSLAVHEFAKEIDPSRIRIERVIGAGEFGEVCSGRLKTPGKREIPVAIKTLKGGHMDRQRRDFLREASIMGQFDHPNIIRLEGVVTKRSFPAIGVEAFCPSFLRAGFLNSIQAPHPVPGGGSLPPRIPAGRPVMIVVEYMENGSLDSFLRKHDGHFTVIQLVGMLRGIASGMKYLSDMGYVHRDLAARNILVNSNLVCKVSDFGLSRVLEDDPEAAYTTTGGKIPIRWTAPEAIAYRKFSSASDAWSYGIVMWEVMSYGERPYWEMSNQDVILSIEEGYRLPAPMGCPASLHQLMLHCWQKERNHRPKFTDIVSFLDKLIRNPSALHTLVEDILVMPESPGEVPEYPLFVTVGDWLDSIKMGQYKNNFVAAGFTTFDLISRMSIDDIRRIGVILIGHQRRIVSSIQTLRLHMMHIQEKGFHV
quantityName: Kd (nM)
Number in nM, nothing else.

(Q) Which Kd reading was recorded for the compound `Cc1ccc(O)cc1Nc1ccnc(Nc2cccc(C(N)=O)c2)n1` ?
(A) 20

Origin of the recorded values: ChEMBL document CHEMBL1151712
